Hey, just so you know, these numbers are from patent US11787788B2.

Tested on: A431 human epidermoid carcinoma cells
Assay: Cell proliferation assay, wild-type ERBB1
Format: cell-based
Conditions: A-431, 72 hrs treatment, class symbols
Metric: GI50

INSERT INTO measurements (smiles_code, target_of_assay, metric, reported) VALUES
  ('C=CC(=O)N1CCCC[C@@H](n2c(NC(=O)c3ccnc(C)c3)nc3cc(OC(F)(F)F)cc(Cl)c32)C1', 'A431 human epidermoid carcinoma cells', 'GI50', '1 to 5 µM'),
  ('C=CC(=O)N1CCC(Oc2cccc3nc(NC(=O)c4ccnc(C)c4)n([C@@H]4CCCCN(C(=O)C=C)C4)c23)CC1', 'A431 human epidermoid carcinoma cells', 'GI50', '> 5 µM'),
  ('C=CC(=O)N1CCCC[C@@H](n2c(NC(=O)c3ccnc(C)c3)nc3cccc(OC4CCN(C(C)=O)CC4)c32)C1', 'A431 human epidermoid carcinoma cells', 'GI50', '0.5 to 1 µM'),
  ('C=CC(=O)N1CCCC[C@@H](n2c(NC(=O)c3ccnc(C)c3)nc3cccc(OC4CCN(CC)CC4)c32)C1', 'A431 human epidermoid carcinoma cells', 'GI50', '< 0.5 µM'),
  ('Cc1cc(C(=O)Nc2nc3cc(OC(F)(F)F)cc(Cl)c3n2[C@@H]2CCCCN(C(=O)/C=C/CN(C)C)C2)ccn1', 'A431 human epidermoid carcinoma cells', 'GI50', '1 to 5 µM');
